test: Cytotoxicity against Homo sapiens (human) NF103 cells assessed as survival at 100 uM after 24 hr by MTT assay relative to control; format: cell-based; settings: read-out: Survival
assay.endpoint: viability at 24 h, 100 µM (%)

1) O=[N+]([O-])c1ccccc1S(=O)(=O)N1CCC(C(O)(c2ccccc2)c2ccccc2)CC1: 63.4
2) Cc1noc(C)c1S(=O)(=O)N1CCC(C(O)(c2ccccc2)c2ccccc2)CC1: 53.8
3) O=S(=O)(CCl)N1CCC(C(O)(c2ccccc2)c2ccccc2)CC1: 53.5
4) O=[N+]([O-])c1ccc(S(=O)(=O)N2CCC(C(O)(c3ccccc3)c3ccccc3)CC2)cc1: 53.6
5) O=S(=O)(Cc1ccccc1)N1CCC(C(O)(c2ccccc2)c2ccccc2)CC1: 59.8
6) O=S(=O)(c1ccc(Cl)cc1)N1CCC(C(O)(c2ccccc2)c2ccccc2)CC1: 53
7) CCCc1ccc(S(=O)(=O)N2CCC(C(O)(c3ccccc3)c3ccccc3)CC2)cc1: 60
8) O=S(=O)(c1ccccc1)N1CCC(C(O)(c2ccccc2)c2ccccc2)CC1: 63
9) O=[N+]([O-])c1cccc(S(=O)(=O)N2CCC(C(O)(c3ccccc3)c3ccccc3)CC2)c1: 57.4
10) Cc1ccc(S(=O)(=O)N2CCC(C(O)(c3ccccc3)c3ccccc3)CC2)cc1: 65.6
11) CS(=O)(=O)N1CCC(C(O)(c2ccccc2)c2ccccc2)CC1: 64
12) O=S(=O)(c1ccc(Cl)cc1F)N1CCC(C(O)(c2ccccc2)c2ccccc2)CC1: 51.8
13) CC(C)S(=O)(=O)N1CCC(C(O)(c2ccccc2)c2ccccc2)CC1: 60
